B1: POU domain, class 4, transcription factor 1, residues 266 to 347; numbered along this chain, Q01851 (parent)
chain: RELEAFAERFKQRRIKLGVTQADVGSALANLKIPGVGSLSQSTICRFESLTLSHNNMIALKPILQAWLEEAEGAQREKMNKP

# Variants of: B1
# test: abundance fitness (aPCA) (normalised: wild type 0, dead -1); higher = more abundant; growth selection in yeast, the domain comes from the species named
# setup_conditions: Homo sapiens
endpoint_label: abundance fitness
Lab note: jot down the number only; don't add units.

Sample records with abundance fitness:
Dear colleague, I am looking for the recorded abundance fitness of the following variant: A7K -0.489

Dear colleague, I am looking for the recorded abundance fitness of the following variant: N30Q 0.026

Dear colleague, I am looking for the recorded abundance fitness of the following variant: A71W -0.186

Dear colleague, I am looking for the recorded abundance fitness of the following variant: A66F -0.113

Dear colleague, I am looking for the recorded abundance fitness of the following variant: P62M -0.687

Dear colleague, I am looking for the recorded abundance fitness of the following variant: S40Q -0.072

Dear colleague, I am looking for the recorded abundance fitness of the following variant: N55H -0.06

Pending variant:
Dear colleague, I am looking for the recorded abundance fitness of the following variant: L52H -0.234
